- TEST SYSTEM: Heat shock 70 kDa protein 6 (Homo sapiens) (UniProt P17066)
- Sequence (P17066 whole entry): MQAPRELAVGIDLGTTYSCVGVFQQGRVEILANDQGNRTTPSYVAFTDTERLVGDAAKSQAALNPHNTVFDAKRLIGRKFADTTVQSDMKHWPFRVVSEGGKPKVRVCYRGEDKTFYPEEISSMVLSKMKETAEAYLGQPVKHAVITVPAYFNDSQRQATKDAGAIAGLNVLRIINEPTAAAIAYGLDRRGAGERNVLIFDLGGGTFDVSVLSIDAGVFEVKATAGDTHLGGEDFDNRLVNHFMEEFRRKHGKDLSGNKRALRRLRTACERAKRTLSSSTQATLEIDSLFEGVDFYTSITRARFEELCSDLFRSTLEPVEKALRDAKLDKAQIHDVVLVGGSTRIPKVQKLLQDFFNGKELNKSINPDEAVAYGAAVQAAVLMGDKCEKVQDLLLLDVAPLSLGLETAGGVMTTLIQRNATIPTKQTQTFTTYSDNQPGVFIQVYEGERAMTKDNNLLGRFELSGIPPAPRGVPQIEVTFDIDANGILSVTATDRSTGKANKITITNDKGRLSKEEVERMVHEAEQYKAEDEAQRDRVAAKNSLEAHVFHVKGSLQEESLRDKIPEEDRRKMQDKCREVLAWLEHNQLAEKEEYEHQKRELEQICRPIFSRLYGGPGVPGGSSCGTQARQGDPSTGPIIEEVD
- TEST NAME: Induction of […] (unknown origin)-mediated heat shock response expressed in human 293T cells coexpressing GFP assessed as heat shock index after overnight incubation by luciferase reporter gene assay relative to control
- Type: cell-based
MEASUREMENT LABEL: fold change (FC)
Answer with a number only.

CC(=O)OCC1=C(C)C[C@H]([C@@H](C)[C@H]2CC[C@H]3[C@@H]4C[C@@H](OC(C)=O)[C@@]5(O)CC=CC(=O)[C@]5(C)[C@H]4CC[C@]23C)OC1=O ... 0
CC1=C(CO)C(=O)O[C@@H]([C@@H](C)[C@H]2CC[C@H]3[C@@H]4C[C@H]5O[C@]56C(=O)C=CC(=O)[C@]6(C)[C@H]4CC[C@]23C)C1 ... 0.79
CC1=C(CO)C(=O)O[C@@H]([C@@H](C)[C@H]2CC[C@H]3[C@@H]4C[C@H](O)[C@]5(O)[C@@H](O)C=CC(=O)[C@]5(C)[C@H]4CC[C@]23C)C1 ... 0
CC(=O)OCC1=C(C)C[C@H]([C@@H](C)[C@H]2CC[C@H]3[C@@H]4C[C@H]5O[C@]56C(=O)C=CC(=O)[C@]6(C)[C@H]4CC[C@]23C)OC1=O ... 0.92

Could you now look at the following compound, please?
Given `CC1=C(CO)C(=O)O[C@@H]([C@@H](C)[C@H]2CC[C@H]3[C@@H]4C[C@H]5O[C@]56[C@@H](O)C=CC(=O)[C@]6(C)[C@H]4CC[C@]23C)C1` , state its recorded fold change (FC). 1.35
